# Test system: KRAS G12V dependent lung adenocarcinoma cell line, NCI-H441
# Experiment Notes: Cellular pERK (Thr202/Tyr204) FRET/HTRF assay
# Format: cell-based
# Measurement Parameters: Homo sapiens, NCI-H441, cellular pERK (Thr202/Tyr204) HTRF, NCI-H441 cells
Quantity Name: IC50

Some molecules with known IC50 results, for comparison:
Entry under test: "[2H]C([2H])(Oc1nc(N2CC=CC[C@H]3[C@H](F)[C@H]32)c2cnc(-c3cc(N)cc4ccc(F)c(C#C)c34)c(F)c2n1)[C@@]12CCCN1C[C@H](F)C2" . Its IC50 was < 50 nM

Entry under test: "C#Cc1c(F)ccc2cc(O)cc(-c3ncc4c(N5CCCO[C@H]6C[C@H]65)nc(OC[C@@]5(C)CCCN5)nc4c3F)c12" . Its IC50 was 500 to 10000 nM

Entry under test: "[2H]C([2H])(Oc1nc(N2CCOC[C@H]3[C@H](F)[C@H]32)c2cc(C#N)c(-c3cc(N)cc4ccc(F)c(C#C)c34)c(C)c2n1)[C@@]12CCCN1C[C@H](F)C2" . Its IC50 was < 50 nM

Entry under test: "[2H]C([2H])(Oc1nc(N2CCOC[C@H]3[C@H](F)[C@H]32)c2cnc(-c3c(F)c(N)c(F)c(C)c3C(F)(F)F)c(F)c2n1)[C@@]12CCCN1C[C@H](F)C2" . Its IC50 was 50 to 500 nM

Entry under test: C#Cc1c(F)ccc2cc(N)cc(-c3ncc4c(N5CCOC[C@H]6[C@H](F)[C@H]65)nc(OC[C@@]56CCCN5C[C@]5(C[C@H]5F)C6)nc4c3F)c12 (single isomer, unassigned) . Its IC50 was < 50 nM

Next:
Entry under test: "[2H]C([2H])(Oc1nc(N2CCOC[C@H]3[C@H](F)[C@H]32)c2cnc(-c3cncc4ccc(F)c(OCF)c34)c(F)c2n1)[C@@]12CCCN1C[C@H](F)C2" . Its IC50 was < 50 nM

Entry under test: "[2H]c1c(F)c(C#C)c2c(-c3ncc4c(N5CCOC[C@H]6[C@H](F)[C@H]65)nc(OC([2H])([2H])[C@@]56CCCN5C[C@H](F)C6)nc4c3F)cc(N)cc2c1[2H]" . Its IC50 was < 50 nM

Entry under test: "[2H]C([2H])(Oc1nc(N2CCOC[C@H]3[C@H](F)[C@H]32)c2ccc(-c3cc(N)cc(C)c3C(F)(F)F)c(F)c2n1)[C@@]12CCCN1C[C@H](F)C2" . Its IC50 was 500 to 10000 nM

Entry under test: "[2H]C([2H])([2H])Oc1c(F)c(F)c(F)c2cccc(-c3ncc4c(N5CCOC[C@H]6[C@H](F)[C@H]65)nc(OC([2H])([2H])[C@@]56CCCN5C[C@H](F)C6)nc4c3F)c12" . Its IC50 was 50 to 500 nM

Entry under test: "Cc1c(F)c(N)cc(-c2ncc3c(N4CCCC[C@H]5[C@H](F)[C@H]54)nc(OC[C@@]45CCCN4C/C(=C\F)C5)nc3c2F)c1C(F)(F)F" . Its IC50 was 50 to 500 nM

// provenance: patent US20250282799A1
